# TARGET OF ASSAY: Protein translocase subunit SecA (Escherichia coli (strain K12)) (UniProt P10408)
# Sequence (P10408 whole entry): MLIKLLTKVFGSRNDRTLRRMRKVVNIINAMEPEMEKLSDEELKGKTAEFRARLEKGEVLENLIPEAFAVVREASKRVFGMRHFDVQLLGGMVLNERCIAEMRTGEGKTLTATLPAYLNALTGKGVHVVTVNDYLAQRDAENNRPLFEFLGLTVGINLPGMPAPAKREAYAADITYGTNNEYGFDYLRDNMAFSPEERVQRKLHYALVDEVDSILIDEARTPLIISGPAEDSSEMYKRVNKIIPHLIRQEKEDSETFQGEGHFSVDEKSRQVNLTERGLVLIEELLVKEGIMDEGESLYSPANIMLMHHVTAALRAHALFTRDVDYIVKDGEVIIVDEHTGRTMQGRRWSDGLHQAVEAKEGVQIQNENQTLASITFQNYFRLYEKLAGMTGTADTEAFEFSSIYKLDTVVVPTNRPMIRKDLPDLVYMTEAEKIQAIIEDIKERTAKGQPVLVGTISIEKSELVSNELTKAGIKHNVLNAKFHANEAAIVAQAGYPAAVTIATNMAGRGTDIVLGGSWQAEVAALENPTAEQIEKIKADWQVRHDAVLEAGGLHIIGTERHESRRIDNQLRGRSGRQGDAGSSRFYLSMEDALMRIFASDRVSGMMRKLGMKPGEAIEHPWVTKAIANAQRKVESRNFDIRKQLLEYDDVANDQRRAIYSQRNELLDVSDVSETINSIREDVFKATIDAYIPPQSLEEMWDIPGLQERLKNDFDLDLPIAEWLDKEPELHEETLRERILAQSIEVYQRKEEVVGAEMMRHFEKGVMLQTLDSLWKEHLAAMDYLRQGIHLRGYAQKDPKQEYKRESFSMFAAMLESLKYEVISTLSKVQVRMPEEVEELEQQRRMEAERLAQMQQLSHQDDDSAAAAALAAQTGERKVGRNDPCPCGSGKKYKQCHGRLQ
# PROTOCOL TEXT: Assay to Identify E. coli SecA ATPase Inhibitors
# Type: functional
# Set-up: scale not given: direction of the effect not stated beside the values
# SETTINGS: 30 µM
Potency and affinity values are given separately.
PARAMETER MEASURED: Percent Effect (%)
Just the number in %, nothing appended.

Percent Effect in this record for CC(C)n1ccnc1CN1CCCN(C(=O)COC2CCCC2)CC1 : -2.6

Percent Effect in this record for CCN1CCN(C2CCN(Cc3ncc(C(C)(C)C)o3)CC2)C1=O : -2.95

Percent Effect in this record for Cc1nn(C)c(N2CCOCC2)c1CNC(C)c1ccco1 (centres undefined) : -4.24

Percent Effect in this record for CCOC(=O)C1CCN(C(=O)Cn2ccc3cc(Br)ccc32)CC1 : -3.71

Percent Effect in this record for O=C(C1=CCCC1)N1C[C@H](Oc2cccnc2)[C@H]2OCCC[C@H]21 : 1.45

Percent Effect in this record for CS(=O)(=O)N1CCC2(CN(C(=O)c3cccnc3)C2)C1 : -2.76

Percent Effect in this record for CN(CCCC#N)C1CCCN(Cc2noc(C3CC3)n2)C1 (centres undefined) : -1.64

Percent Effect in this record for CNS(=O)(=O)c1cccc(CNc2nccc(C(F)(F)F)n2)c1 : -0.353

Percent Effect in this record for Cn1cc(CN2CCCn3cnc(COCC4CC4)c3C2)cn1 : -4.51

Percent Effect in this record for O=C(c1ncccn1)N1C[C@H]2CCC[C@@]2(COCc2ccncc2)C1 : -1.29

Percent Effect in this record for O=S(=O)(NCC1CCN(c2ccccn2)CC1)c1ccccc1F : -1.81

Percent Effect in this record for CC(C)C1CN(C(=O)c2ccc(C(N)=O)cc2)CCS1 (centres undefined) : -4.2

Percent Effect in this record for O=c1[nH]c2c(c(=O)n1C1CCCCC1)CCC2Nc1ccccc1Cl (centres undefined) : -2.47

Percent Effect in this record for CSCC(CCO)NC(=O)Nc1cc(C)ccc1C (centres undefined) : -3.37

Percent Effect in this record for N#Cc1ccccc1N1CCCN(C(=O)CCn2cccn2)CC1 : -6.4

Percent Effect in this record for CCOc1cccc(CNC(=O)NCC(O)c2cccc(F)c2)c1 (centres undefined) : -5.26

Percent Effect in this record for CC(=O)NCCNC(=O)N(C)Cc1ccc2c(c1)OCCO2 : -3.01

Percent Effect in this record for Cc1cc(CN2CCCC2c2noc(C3CC3)n2)c2ccccc2n1 (centres undefined) : 1.53

Percent Effect in this record for O=C(c1ccccn1)N1C[C@@H]2CC[C@H](C1)N(C(=O)CCc1ccsc1)C2 : -0.66

Percent Effect in this record for COc1cccc(CNC(=O)CC2CSc3ncc(C)c(=O)n32)c1 (centres undefined) : -1.02

Percent Effect in this record for CS(=O)(=O)N1CCC(C(=O)NCCNc2ncccn2)CC1 : -3.08

Percent Effect in this record for CS(=O)(=O)NCC1CCCN(C(=O)Nc2cccnc2N2CCCC2)C1 (centres undefined) : -5.11

Percent Effect in this record for OC(COc1ccccc1)CN1CCC(c2ccn[nH]2)CC1 (centres undefined) : -2.35

Percent Effect in this record for NC(=O)c1cc(NC(=O)N2CCCCCC2)ccc1F : -2.22
